Test system: Plasmodium berghei
Experiment: Luciferase/luciferin-expressing antifolate-resistant parasites were used to infect a culture of HepG2 cells that were pre-incubated with compounds. Infected hepatocytes emit light due to the luciferase reaction. Assay results are presented as the percent inhibition of light emission compared to control. […]
Format: functional
Conditions: sporozoite, HEPG2TOX_HILL_SLOPE 12.4, HEPG2TOX_R_SQUARED 0.741, PBLUC_HILL_SLOPE 61.7, PBLUC_R_SQUARED 0.602, read-out: LUCIFERASE INFECTION ASSAY - IC50
propertyMeasured: pIC50
The meaning of pIC50 here: minus log10 of the concentration in molar units.

Problem: Query: pIC50; subject: N#Cc1ccc(/C=C/C(=O)c2cccc3ccccc23)cc1
Solution: 5.12

----------
Tested on: Plasmodium berghei
Experiment: Luciferase/luciferin-expressing antifolate-resistant parasites were used to infect a culture of HepG2 cells that were pre-incubated with compounds. Infected hepatocytes emit light due to the luciferase reaction. Assay results are presented as the percent inhibition of light emission compared to control. […]
Assay type: functional
Details: sporozoite, PBLUC_HILL_SLOPE 35.5, PBLUC_R_SQUARED 0.454, read-out: LUCIFERASE INFECTION ASSAY - IC50
propertyMeasured: pIC50
The scale used: pIC50 is minus the common logarithm of the concentration in molar units.

Problem: Fill in the blank: the reported pIC50 of Cc1cc(NC(=O)CNC(c2ccc(C3CCCCC3)cc2)C(C)C)n(C2CCS(=O)(=O)C2)n1 (stereo unspecified) is ____.
Solution: 5.03

----------
Test system: Plasmodium berghei
Experiment: Luciferase/luciferin-expressing antifolate-resistant parasites were used to infect a culture of HepG2 cells that were pre-incubated with compounds. Infected hepatocytes emit light due to the luciferase reaction. Assay results are presented as the percent inhibition of light emission compared to control. […]
Type: functional
Settings: sporozoite, PBLUC_HILL_SLOPE 3.72, PBLUC_R_SQUARED 0.499, read-out: LUCIFERASE INFECTION ASSAY - IC50
propertyMeasured: IC50 (µM)
API: value field is a number in µM; no unit string.

Problem: Entry CN1CCN(C(=O)c2cccc(-c3cnc4cnc(-c5ccccc5Oc5ccccc5)cn34)c2)CC1 : reported IC50 = ?
Solution: 3.93

----------
System: Plasmodium berghei
Assay: Luciferase/luciferin-expressing antifolate-resistant parasites were used to infect a culture of HepG2 cells that were pre-incubated with compounds. Infected hepatocytes emit light due to the luciferase reaction. Assay results are presented as the percent inhibition of light emission compared to control. […]
Format: functional
Conditions: sporozoite, FFLUC_HILL_SLOPE 21.5, FFLUC_R_SQUARED 0.833, read-out: LUCIFERASE INFECTION ASSAY - IC50
propertyMeasured: IC50

Problem: Give recorded IC50 with Plasmodium berghei for the following molecule: O=S(=O)(c1cc(C(F)(F)F)cc(C(F)(F)F)c1)N1CCC(C(c2ccccc2)c2ccccc2)CC1
Solution: > 6.26 µM

----------
System: Plasmodium berghei
Test: Luciferase/luciferin-expressing antifolate-resistant parasites were used to infect a culture of HepG2 cells that were pre-incubated with compounds. Infected hepatocytes emit light due to the luciferase reaction. Assay results are presented as the percent inhibition of light emission compared to control. […]
Format: functional
Conditions: sporozoite, PBLUC_HILL_SLOPE 3.12, PBLUC_R_SQUARED 0.566, read-out: LUCIFERASE INFECTION ASSAY - IC50
propertyMeasured: IC50 (µM)
Kindly answer with a numeric value in µM, unit omitted.

Problem: Can you share its IC50? I mean this molecule: CCN(CC)c1ccc(/C=N/NC(=S)NC(C)C)c(O)c1
Solution: 7.29
